EC50 values by entry
Target: Thyroid hormone receptor beta (Homo sapiens, UniProt P10828)
Sequence (P10828 whole entry): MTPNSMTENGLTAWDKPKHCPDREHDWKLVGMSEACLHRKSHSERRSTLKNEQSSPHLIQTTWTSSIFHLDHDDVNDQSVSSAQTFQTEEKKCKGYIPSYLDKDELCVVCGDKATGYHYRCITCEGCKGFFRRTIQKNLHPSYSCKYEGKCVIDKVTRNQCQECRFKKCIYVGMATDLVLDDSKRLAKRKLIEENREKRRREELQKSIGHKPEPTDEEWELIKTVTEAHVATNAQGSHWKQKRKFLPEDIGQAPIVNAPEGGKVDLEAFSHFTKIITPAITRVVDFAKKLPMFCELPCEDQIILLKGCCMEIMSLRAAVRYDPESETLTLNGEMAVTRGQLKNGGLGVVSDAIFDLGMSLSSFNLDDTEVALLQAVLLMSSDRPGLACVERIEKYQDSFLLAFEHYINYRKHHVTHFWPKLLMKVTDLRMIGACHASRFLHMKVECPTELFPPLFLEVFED
Test: THR Reporter Gene Method
Experimental: Huh7 cells were cultured in a DMEM medium supplemented with 10% FBS. […] After incubation, the culture medium was discarded, and each well was added with 35 μL of serum-free and phenol red-free DMEM and 35 μL of Steady-Glo, shaked for 10 minutes in the dark, and the chemiluminescence value of the sample was detected. The agonistic activity of the compound was calculated as follows: % effect=(compound−blank control)/(positive control−blank control) 100%. […]
Observable: EC50

Molecule	Result
COc1ccc2c(ccn2-c2c(Cl)cc(-n3nc(C#N)c(=O)[nH]c3=O)cc2Cl)n1 [US20240059676, Compound ZB-H-23]	> 33 µM
COc1ccc2c(ccn2-c2c(Cl)cc(-n3nc(C#N)c(=O)[nH]c3=O)cc2Cl)c1	> 33 µM
N#Cc1nn(-c2cc(Cl)c(-n3ncc4c3ccc(=O)n4CC3CCCCC3)c(Cl)c2)c(=O)[nH]c1=O [US20240059676, Compound ZB-H-81]	< 0.137 µM
